B1: VH:VL chains; a variant is named by its letters at X, in order (parent)
chain 1: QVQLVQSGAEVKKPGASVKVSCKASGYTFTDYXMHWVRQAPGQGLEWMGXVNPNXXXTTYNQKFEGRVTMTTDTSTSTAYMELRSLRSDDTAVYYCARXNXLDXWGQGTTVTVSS
chain 2: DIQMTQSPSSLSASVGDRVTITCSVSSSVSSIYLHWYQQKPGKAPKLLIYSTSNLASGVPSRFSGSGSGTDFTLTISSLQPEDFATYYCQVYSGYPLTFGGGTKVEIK

- Variants of: B1
- assayProcedure: yeast display scFab, FACS + sequencing
reportedProperty: non-specific binding call

Would you please look over these solved cases?
[[record]]
variantdescription = "YRKRGSVF"
recordedmeasurement = "binds"

[[record]]
variantdescription = "VATKGFVV"
recordedmeasurement = "no binding"

[[record]]
variantdescription = "VTTKSSAV"
recordedmeasurement = "no binding"

[[record]]
variantdescription = "FRATSAVD"
recordedmeasurement = "binds"

[[record]]
variantdescription = "YRRRGALY"
recordedmeasurement = "binds"


Could you tell me which non-specific binding call is on file for `YRTKAAVD` ? binds

Could you tell me which non-specific binding call is on file for `VRAKGSAD` ? binds

Could you tell me which non-specific binding call is on file for `FRAEGSVA` ? binds

Could you tell me which non-specific binding call is on file for `FRGGGAVS` ? binds

Could you tell me which non-specific binding call is on file for `YRGRGSAF` ? binds
